Numbers sourced from patent US8669244B2.

# MEASURED TARGET: GAL4-hERα ligand binding domain (LBD) chimeric receptor (Homo sapiens)
# Construct: expressed in transfected cells; host or cells: CHO-K1 (Chinese hamster cells), transient co-transfection with (UAS)4-ALP reporter plasmid
# Sequence (P03372 311-547 limits assumed): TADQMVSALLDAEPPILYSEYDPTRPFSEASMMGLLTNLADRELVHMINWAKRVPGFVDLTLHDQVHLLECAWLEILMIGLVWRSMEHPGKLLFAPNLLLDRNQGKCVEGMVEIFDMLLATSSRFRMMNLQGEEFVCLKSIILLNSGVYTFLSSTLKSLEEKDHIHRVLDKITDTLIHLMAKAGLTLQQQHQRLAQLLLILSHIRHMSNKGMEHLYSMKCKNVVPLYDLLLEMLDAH
# ASSAY EXPLANATION: Transactivation assay for estrogen receptor, ALP reporter, compound alone (ERα)
# Format: cell-based
# EXPERIMENTAL PARAMETERS: compound alone
MEASURED PROPERTY: EC50 (µM)

[[record]]
compound = "CC1(C)C[C@H](O)C[C@@]2(C)OC(=O)C=C12 [loliolide, Loliolide]"
unit_string = "µM"
experimental_value = 14.2

